study.target: T1, human Claudin18.2 (human)
T1 construct: also called CLDN18.2
procedure.text: FACS, Claudin18.2-HEK293 cells
recorded.metric: pEC50
Recall that pEC50 is obtained by taking minus log10 of the concentration measured in molar.

-- ask For the binder IMAB362 analog (Claudiximab, Zolbetuximab) (antibody, V domains shown, in-house prepared analog; chimeric IgG1) VH: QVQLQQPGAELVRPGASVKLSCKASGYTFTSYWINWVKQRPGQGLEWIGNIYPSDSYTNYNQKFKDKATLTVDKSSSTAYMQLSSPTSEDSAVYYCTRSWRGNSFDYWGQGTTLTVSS VL: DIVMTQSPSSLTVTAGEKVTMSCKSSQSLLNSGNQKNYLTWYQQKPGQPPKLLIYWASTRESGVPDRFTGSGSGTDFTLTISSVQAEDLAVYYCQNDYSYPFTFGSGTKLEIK , what pEC50 is on record?
-- reply 9.22

-- ask For the binder chimeric 252F1B10 (antibody, human IgG1, kappa, V domains shown, chimeric, human IgG1/kappa constant regions) VH: QAYLQQSGAELVRSGASVKMSCKASGYTFTSHNMHWVKQTPGQGLEWIGYIYPGNGGTNYNQKFKGKATLTADTSSSTAYMQINSLTSEDSAVYFCTRDYYGNSFAYWGQGTLVTVSA VL: DIVMTQSPSSLTEKAGERVSMSCKSSQSLFNSGNQKNYLTWYQQKPGQPPKLLIYWASTRESGVPDRFTGSGSGTDFTLTISSVQAEDLAVYYCQNDYRYPFTFGAGTKLELKR , what pEC50 is on record?
-- reply 9.10
